Molecular target: T1, purified human monomeric 4-1BB (human, UniProt Q07011 24-186)
T1 construct: the assay used the 4-1BB part released by Factor Xa with the Fc removed; also called h4-1BB; human 4-1BB
T1 sequence (Q07011 other isoform, or with tags, fused parts or gaps limits assumed): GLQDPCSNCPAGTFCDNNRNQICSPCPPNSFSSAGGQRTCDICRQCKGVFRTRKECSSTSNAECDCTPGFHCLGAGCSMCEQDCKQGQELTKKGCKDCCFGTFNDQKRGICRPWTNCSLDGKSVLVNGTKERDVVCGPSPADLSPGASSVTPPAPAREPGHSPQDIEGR
Assay: SPR, mean n=3;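 note: antibodies captured on anti-human Fc chip, 4-1BB injected as five-point two-fold series from 40 nM by single-cycle kinetics at 25 °C, sensorgrams fitted to 1:1 Langmuir model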
Endpoint name: log10 of Kd (log10 of the value in nM)
Heads up, the numbers here are log10 of Kd in nM units.

Example entries begin here.
{"Binder": "v28697 (antibody, human IgG1, kappa, L234A L235A, V domains shown, also called humanized 5G8 H1L3) VH: QVQLQESGPGLVKPSETLSLTCTVSGFSLISYGVHWIRQPPGKGLEWIGVIWSGGSTDYNPSLKSRVTISVDTSKNQFSLKLSSVTAADTAVYYCARNPLTATVMDYWGQGTLVTVSS VL: DIQMTQSPSSLSASVGDRVTVTCRASQNVGTNVAWYQQKPGKAPKALIYSASYRDSGVPSRFSGSGSGTDFTLTISSVQPEDFATYYCQQYNSYPLTFGGGTKLEIKR", "log10 of Kd": 2.87}
{"Binder": "v28687 (antibody, human IgG1, kappa, L234A L235A, V domains shown, also called humanized 1G1 H2L1) VH: EVQLVESGGGLVQPGGSLRLSCAASGFTFSEFGMHWVRQAPGKGLEWVAYISSGGSTIYYADSVKGRFTISRDNAKNSLYLQMNSLRAEDTAVYYCARDWVDYWGQGTLLTVSS VL: EIVLTQSPATLSLSPGERATLSCKASENVGSYVSWYQQKPGQAPRLLIYGASNRYTGIPARFSGSGSGTDFTLTISSLEPEDFAVYYCGQSYSYPLTFGGGTKVEIKR", "log10 of Kd": 1.61}
{"Binder": "v28693 (antibody, human IgG1, kappa, L234A L235A, V domains shown, also called humanized 1G1 H3L3) VH: EVQLVESGGGLVQPGGSLRLSCAASGFTFSEFGMHWVRQAPGKGLEWVAYISSGGSTIYYADSVKGRFTISRDNAKNSLYLQMNSLRAEDTAMYYCARDWVDYWGQGTLLTVSS VL: EIVMTQSPATLSLSPGERVTLSCKASENVGSYVSWYQQKPGQAPRLLIYGASNRYTGVPARFSGSGSGTDFTLTISSVEPEDFAVYYCGQSYSYPLTFGGGTKLELKR", "log10 of Kd": 1.56}

[ask] Output measured log10 of Kd for this item: v28703 (antibody, human IgG1, kappa, L234A L235A, V domains shown, also called humanized 5G8 H3L1) VH: QVQLQESGPGLVKPSETLSITCTVSGFSLISYGVHWVRQPPGKGLEWLGVIWSGGSTDYNPSLKSRVTISKDTSKNQVSFKLSSLTAADTAIYYCARNPLTATVMDYWGQGTLVTVSS VL: DIQMTQSPSSLSASVGDRVTITCRASQNVGTNVAWFQQKPGKAPKSLIYSASYRDSGVPSRFSGSGSGTDFTLTISSLQPEDFATYYCQQYNSYPLTFGGGTKVEIKR
[reply] 2.91

[ask] Output measured log10 of Kd for this item: v28686 (antibody, human IgG1, kappa, L234A L235A, V domains shown, also called humanized 1G1 H1L4) VH: EVQLVESGGGLVQPGGSLRLSCAASGFTFSEFGMHWVRQAPGKGLEWVSYISSGGSTIYYADSVKGRFTISRDNAKNSLYLQMNSLRAEDTAVYYCARDWVDYWGQGTLVTVSS VL: EIVMTQSPATLSLSPGERVTLSCKASENVGSYVSWYQQKPGQAPRLLIYGASNRYTGVPARFSGSGSGTDFTLTISSVEPEDLAVYYCGQSYSYPLTFGGGTKLELKR
[reply] 1.49
